- test.target: T1, Kvβ2 (AKR part, amino acid residues 39-367) (UniProt P62483 39-367)
- T1 sequence (looked up): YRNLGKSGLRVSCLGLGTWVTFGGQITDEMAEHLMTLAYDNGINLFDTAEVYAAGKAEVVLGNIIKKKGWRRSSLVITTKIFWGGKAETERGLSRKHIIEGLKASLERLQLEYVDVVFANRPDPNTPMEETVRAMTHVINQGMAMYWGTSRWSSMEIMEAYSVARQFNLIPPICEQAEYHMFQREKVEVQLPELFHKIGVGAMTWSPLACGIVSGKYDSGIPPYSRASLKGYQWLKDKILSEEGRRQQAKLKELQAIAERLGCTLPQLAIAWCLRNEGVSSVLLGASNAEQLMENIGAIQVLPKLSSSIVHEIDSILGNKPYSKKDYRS
- assay.overview: pull-down
measurement.label: Kd (µM)
State just the number; it will be interpreted in µM.

Ask | Param item = GST-C60 protein expressed from pDEST-26 vector (domain or fragment, rat, UniProt P19024 543-602, looked up) RKVSCSKASFCKTGGSLESSDSIRRGSCPLEKCHLKAKSNVDLRRSLYALCLDTSRETDL ; retrieve measured Kd.
Reply | 5.2
